These measurements were taken from patent US20230365662A1.

# assay_system: HRgpA-6H (Porphyromonas gingivalis) (UniProt P28784)
# run_description: ELISA, Fab FASEBA supernatant on coated HRgpA-6H
measurement_type: OD450nm (OD450nm)

| binder | measurement |
| --- | --- |
| parental mouse (KB001) Fab FASEBA, VL variant I98L (Fab, V domains shown) VH: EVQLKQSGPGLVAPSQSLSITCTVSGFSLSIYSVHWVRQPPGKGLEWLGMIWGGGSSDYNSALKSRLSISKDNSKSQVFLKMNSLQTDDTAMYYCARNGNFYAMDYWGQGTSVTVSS VL: QIVLTQSPAIMSASLGERVTMTCTASSSVSSSFLHWYQQKPGSSPQLWIYSTSNLASGVPARFSGSGSGTSYSLTISSMEAEDAATYYCHQYHHSPYLYTFGGGTKLEIK | 0.836 |
| parental mouse (KB001) Fab FASEBA, VL variant S57M (Fab, V domains shown) VH: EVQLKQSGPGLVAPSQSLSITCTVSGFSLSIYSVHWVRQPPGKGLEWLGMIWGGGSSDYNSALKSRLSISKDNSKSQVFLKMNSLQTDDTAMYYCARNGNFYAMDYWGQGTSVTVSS VL: QIVLTQSPAIMSASLGERVTMTCTASSSVSSSFLHWYQQKPGSSPQLWIYSTSNLAMGVPARFSGSGSGTSYSLTISSMEAEDAATYYCHQYHHSPYIYTFGGGTKLEIK | 0.745 |
